biological target: human KDR (human, UniProt P35968 20-1356); test: cell-based or functional assay
Sequence (P35968 20-1356): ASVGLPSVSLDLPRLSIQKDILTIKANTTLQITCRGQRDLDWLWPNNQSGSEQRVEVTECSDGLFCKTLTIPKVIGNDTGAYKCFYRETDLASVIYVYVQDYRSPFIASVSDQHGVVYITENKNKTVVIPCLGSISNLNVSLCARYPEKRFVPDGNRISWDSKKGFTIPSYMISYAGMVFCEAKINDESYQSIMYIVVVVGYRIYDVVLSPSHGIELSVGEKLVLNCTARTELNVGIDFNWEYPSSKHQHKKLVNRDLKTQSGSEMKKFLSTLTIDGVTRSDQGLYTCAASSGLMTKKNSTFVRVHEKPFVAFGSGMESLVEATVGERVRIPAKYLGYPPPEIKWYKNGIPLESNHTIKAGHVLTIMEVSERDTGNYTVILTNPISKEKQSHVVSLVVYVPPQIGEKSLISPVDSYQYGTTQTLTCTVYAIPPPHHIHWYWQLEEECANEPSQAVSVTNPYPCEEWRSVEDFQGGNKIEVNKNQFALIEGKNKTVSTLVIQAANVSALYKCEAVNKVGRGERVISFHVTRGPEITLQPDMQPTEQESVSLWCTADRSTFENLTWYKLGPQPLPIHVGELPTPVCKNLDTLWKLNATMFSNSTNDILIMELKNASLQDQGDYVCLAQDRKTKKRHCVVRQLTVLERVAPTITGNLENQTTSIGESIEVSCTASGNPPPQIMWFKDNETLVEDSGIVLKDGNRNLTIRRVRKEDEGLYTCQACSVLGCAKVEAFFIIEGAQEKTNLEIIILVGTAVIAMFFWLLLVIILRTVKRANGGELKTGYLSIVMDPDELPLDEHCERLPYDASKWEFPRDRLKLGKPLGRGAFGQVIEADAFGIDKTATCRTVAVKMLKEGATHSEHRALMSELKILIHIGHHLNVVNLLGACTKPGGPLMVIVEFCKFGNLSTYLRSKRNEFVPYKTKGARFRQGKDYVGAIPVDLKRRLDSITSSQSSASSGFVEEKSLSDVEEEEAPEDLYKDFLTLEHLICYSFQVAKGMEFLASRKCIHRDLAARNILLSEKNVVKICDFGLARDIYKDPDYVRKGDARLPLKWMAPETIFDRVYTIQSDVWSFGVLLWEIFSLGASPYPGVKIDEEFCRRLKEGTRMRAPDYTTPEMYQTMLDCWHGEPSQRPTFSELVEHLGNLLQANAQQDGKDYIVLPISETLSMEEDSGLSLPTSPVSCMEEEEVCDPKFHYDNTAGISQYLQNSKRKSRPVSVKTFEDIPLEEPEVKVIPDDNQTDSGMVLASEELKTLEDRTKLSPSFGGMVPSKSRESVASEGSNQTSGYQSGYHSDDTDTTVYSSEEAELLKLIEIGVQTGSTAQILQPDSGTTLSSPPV
endpointName: HUVEC survival, Maximum Inhibition at 50 nM (% Inhibition), N = 2 (%)
The figure you give is taken to be in %; do not add the unit.

Some solved cases for reference:
| binder | unitsSymbol | measuredValue |
| --- | --- | --- |
| 27A3 (antibody, V domains shown, Fully human monoclonal antibody from a XenoMouse hybridoma (IgG2 or IgG4 strain), purified) VH: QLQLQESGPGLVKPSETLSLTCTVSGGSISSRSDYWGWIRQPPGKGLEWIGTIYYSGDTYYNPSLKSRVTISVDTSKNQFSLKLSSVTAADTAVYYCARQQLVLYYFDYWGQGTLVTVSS VL: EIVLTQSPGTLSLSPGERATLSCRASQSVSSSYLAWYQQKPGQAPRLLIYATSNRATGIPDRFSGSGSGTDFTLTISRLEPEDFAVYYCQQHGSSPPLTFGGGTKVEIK | % | 94 |
| 33E1 (antibody, V domains shown, Fully human monoclonal antibody from a XenoMouse hybridoma (IgG2 or IgG4 strain), purified) VH: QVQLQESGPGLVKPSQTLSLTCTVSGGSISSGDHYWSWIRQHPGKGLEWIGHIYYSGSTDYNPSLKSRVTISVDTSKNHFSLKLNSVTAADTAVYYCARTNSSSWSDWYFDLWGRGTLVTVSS VL: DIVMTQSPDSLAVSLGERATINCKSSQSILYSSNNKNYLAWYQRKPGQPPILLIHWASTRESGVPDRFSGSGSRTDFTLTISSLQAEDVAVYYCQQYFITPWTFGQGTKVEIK | % | 99 |
| 29H3 (antibody, V domains shown, Fully human monoclonal antibody from a XenoMouse hybridoma (IgG2 or IgG4 strain), purified) VH: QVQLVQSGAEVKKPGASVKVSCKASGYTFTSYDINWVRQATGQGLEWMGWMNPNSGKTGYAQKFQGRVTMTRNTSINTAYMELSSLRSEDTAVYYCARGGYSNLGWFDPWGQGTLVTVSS VL: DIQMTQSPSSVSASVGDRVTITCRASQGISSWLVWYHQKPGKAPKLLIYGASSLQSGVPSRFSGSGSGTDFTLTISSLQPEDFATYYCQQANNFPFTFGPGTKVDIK | % | 18 |

Which HUVEC survival, Maximum Inhibition at 50 nM (% Inhibition), N = 2 reading was recorded for the binder 33C3 (antibody, V domains shown, Fully human monoclonal antibody from a XenoMouse hybridoma (IgG2 or IgG4 strain), purified) VH: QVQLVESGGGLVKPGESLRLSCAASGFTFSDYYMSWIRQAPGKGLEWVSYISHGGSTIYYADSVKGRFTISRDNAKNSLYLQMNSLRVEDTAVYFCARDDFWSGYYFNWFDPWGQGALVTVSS VL: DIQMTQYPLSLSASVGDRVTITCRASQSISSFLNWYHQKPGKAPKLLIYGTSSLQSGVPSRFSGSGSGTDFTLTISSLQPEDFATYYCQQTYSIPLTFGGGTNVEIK ?
95

Can you check 31E11 (antibody, V domains shown, Fully human monoclonal antibody from a XenoMouse hybridoma (IgG2 or IgG4 strain), purified) VH: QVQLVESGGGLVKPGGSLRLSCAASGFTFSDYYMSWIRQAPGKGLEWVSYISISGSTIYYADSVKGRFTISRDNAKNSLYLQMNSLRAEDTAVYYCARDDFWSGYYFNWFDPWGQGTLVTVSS VL: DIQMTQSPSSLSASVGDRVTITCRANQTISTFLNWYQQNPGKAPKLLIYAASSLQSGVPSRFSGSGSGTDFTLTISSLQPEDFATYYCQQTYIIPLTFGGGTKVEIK next?
101

Can you check 33B1 (antibody, V domains shown, Fully human monoclonal antibody from a XenoMouse hybridoma (IgG2 or IgG4 strain), purified) VH: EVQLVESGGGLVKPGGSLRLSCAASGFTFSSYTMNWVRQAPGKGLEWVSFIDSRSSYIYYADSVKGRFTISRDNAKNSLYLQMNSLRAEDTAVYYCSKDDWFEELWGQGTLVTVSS VL: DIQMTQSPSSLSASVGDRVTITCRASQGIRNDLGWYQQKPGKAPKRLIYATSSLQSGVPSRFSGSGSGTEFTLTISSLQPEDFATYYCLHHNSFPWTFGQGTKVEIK next?
59
